Recorded values, source the METLIN SMRT retention time set (Domingo-Almenara et al. 2019).

measurement.description: gradient 5% acetonitrile 3 min, to 50% in 2 min, to 85% in 15 min, held 3 min, 100 µL/min
measurement.setup: column: Zorbax Extend-C18 2.1 x 50 mm; eluents: water / acetonitrile, 0.1% formic acid
measured.metric: RP-LC retention time (s)

* Cc1c(CC(=O)N2CCC(C(N)=O)CC2)c(=O)oc2cc3occ(C(C)(C)C)c3cc12 | 785

[1] COc1cccc(CNC(=O)C2(C)CCN(C(=O)Nc3ccc(C)c(Cl)c3)CC2)c1
[2] O=C(c1ccc(S(=O)(=O)NCc2cccnc2)o1)N1CCN(c2ccccc2F)CC1
(Q) # min-compare on RP-LC retention time between 1 and 2 # answer = label of selected item
(A) 2
(2: 624 s, 1: 930 s)

---

measurement.description: gradient 5% acetonitrile 3 min, to 50% in 2 min, to 85% in 15 min, held 3 min, 100 µL/min
measurement.setup: column: Zorbax Extend-C18 2.1 x 50 mm; eluents: water / acetonitrile, 0.1% formic acid
measured.metric: RP-LC retention time (s)

[I] COc1ccc(NC(=O)Cn2c(N3CCOCC3)nc(C)cc2=O)cc1
[II] COc1ccc(-c2noc(C3(NC(=O)c4cccc(Cl)c4)CCCCC3)n2)cc1
(Q) # min-compare on RP-LC retention time between I and II # answer = label of selected item
(A) I
(I: 609 s, II: 1250 s)

---

measurement.description: gradient 5% acetonitrile 3 min, to 50% in 2 min, to 85% in 15 min, held 3 min, 100 µL/min
measurement.setup: column: Zorbax Extend-C18 2.1 x 50 mm; eluents: water / acetonitrile, 0.1% formic acid
measured.metric: RP-LC retention time (s)

• CS(=O)(=O)c1ccc(Nc2ncccc2S(N)(=O)=O)cc1 = 668
• CC(C(=O)N1CCN(c2cc(=O)n(C)c(=O)n2C)CC1)N1C(=O)COc2ccccc21 (stereo unspecified) = 627
• CN(C)C(CNC(=O)C(=O)NCc1ccc2c(c1)OCO2)c1ccsc1 (stereo unspecified) = 556
• COCc1nc2c(N)cccn2n1 = 569
• CC(C)NC(=O)N1Cc2ccccc2OC2(CCN(C)CC2)C1 = 591
• COc1ccc(NC(=O)Cn2nc3n(c2=O)CCCC3)cc1OC = 595

---

measurement.description: gradient 5% acetonitrile 3 min, to 50% in 2 min, to 85% in 15 min, held 3 min, 100 µL/min
measurement.setup: column: Zorbax Extend-C18 2.1 x 50 mm; eluents: water / acetonitrile, 0.1% formic acid
measured.metric: RP-LC retention time (s)

Some solved entries appear below for comparison.
- CCc1ccc2nc(C)cc(C(N)=O)c2c1: 561
- O=C1CCCc2c1cc(C(=O)N1CCCCC1)c(=O)n2-c1ccc(F)cc1: 704
- CCOC(=O)c1c(S(=O)(=O)N2CCC(C(=O)NCc3ccc(OC)cc3)CC2)c(C)n(C)c1C: 793
- Fc1ccc(-c2nnc(Cc3nc(-c4cccnc4)no3)o2)cc1: 747

[1] O=C(c1ccc(F)c(Cl)c1)N1CCN(c2cc(-c3cccnc3)[nH]n2)CC1
[2] C=CCn1nnc(NCc2ccc(-c3cc(Cl)ccc3Cl)o2)n1
(Q) # min-compare on RP-LC retention time between 1 and 2 # answer = label of selected item
(A) 1

---

measurement.description: gradient 5% acetonitrile 3 min, to 50% in 2 min, to 85% in 15 min, held 3 min, 100 µL/min
measurement.setup: column: Zorbax Extend-C18 2.1 x 50 mm; eluents: water / acetonitrile, 0.1% formic acid
measured.metric: RP-LC retention time (s)

Some solved entries appear below for comparison.
- Cc1cccc(OCCc2noc(C3CCCN3)n2)c1 (stereo not given): 645
- CCOC(=O)c1[nH]c(C)c(CCC(=O)N2CCC(C(=O)NCCc3ccc(C)cc3)CC2)c1C: 843
- O=C(CN1CCN(Cc2ccc(F)cc2)C1=O)NC1CC1: 649

[1] Cn1cnc(S(=O)(=O)N2CCC(C(=O)NCc3ccccc3)CC2)c1
[2] O=c1ccn(-c2cccc(F)c2)nc1-c1nc(-c2ccc(F)c(Cl)c2)no1
(Q) # min-compare on RP-LC retention time between 1 and 2 # answer = label of selected item
(A) 1
